// provenance: patent EP0494819B1

# test.system: récepteur androgène (Rattus norvegicus, UniProt P15207)
# Construct: Des aliquotes du surnageant obtenu (=cytosol), sont incubées 30 minutes et 24 heures à 0°C; from tissue; host or cells: prostate cytosol (105 000 g supernatant) of castrated male Sprague Dawley rats
# Sequence (P15207 1-902): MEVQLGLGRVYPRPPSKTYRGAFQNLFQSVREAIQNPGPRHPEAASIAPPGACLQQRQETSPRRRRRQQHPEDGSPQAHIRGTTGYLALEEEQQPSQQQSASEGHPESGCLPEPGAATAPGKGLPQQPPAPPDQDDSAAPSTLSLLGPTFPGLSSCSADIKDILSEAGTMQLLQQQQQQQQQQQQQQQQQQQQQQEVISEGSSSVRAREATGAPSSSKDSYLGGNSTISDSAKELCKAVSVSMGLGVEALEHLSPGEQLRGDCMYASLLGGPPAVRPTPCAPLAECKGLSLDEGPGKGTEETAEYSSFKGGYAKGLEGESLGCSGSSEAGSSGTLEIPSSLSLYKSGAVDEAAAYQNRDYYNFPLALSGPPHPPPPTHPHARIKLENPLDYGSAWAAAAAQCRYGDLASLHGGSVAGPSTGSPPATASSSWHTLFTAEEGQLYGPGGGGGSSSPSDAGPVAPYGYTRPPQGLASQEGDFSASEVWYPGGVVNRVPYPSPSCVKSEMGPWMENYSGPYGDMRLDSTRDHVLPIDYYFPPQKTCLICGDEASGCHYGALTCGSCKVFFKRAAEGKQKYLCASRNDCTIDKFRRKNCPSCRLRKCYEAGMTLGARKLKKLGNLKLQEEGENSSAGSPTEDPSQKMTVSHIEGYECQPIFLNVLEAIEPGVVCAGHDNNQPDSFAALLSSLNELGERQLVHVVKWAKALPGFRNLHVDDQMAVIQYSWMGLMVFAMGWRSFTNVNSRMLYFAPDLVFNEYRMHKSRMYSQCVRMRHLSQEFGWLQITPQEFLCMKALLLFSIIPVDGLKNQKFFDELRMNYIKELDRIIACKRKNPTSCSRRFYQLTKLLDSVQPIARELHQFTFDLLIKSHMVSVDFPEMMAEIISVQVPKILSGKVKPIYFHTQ
# method.notes: Affinity for the androgen receptor: relative binding affinity (ARL), displacement of tritiated testosterone in prostate cytosol of castrated rats
# Parameters: species or system rats mâles Sprague Dawley EOPS
# experimental.context: incubation 24 hours at 0°C; testosterone = 100; ARL=100 (CH)/(CX)
measurement.kind: ARL (affinité relative de liaison), Incubation : 24 heures
No unit in the answer, only the number.

IN: Form field: reported ARL (affinité relative de liaison), Incubation : 24 heures of `CN1C(=S)N(c2ccc(C#N)c(C(F)(F)F)c2)C(=N)C1(C)C`
OUT: 8

IN: Form field: reported ARL (affinité relative de liaison), Incubation : 24 heures of `CC1(C)NC(=S)N(c2ccc(C#N)c(C(F)(F)F)c2)C1=N`
OUT: 7

IN: Form field: reported ARL (affinité relative de liaison), Incubation : 24 heures of `CN1C(=S)N(c2ccc(C#N)c(C(F)(F)F)c2)C(=S)C1(C)C`
OUT: 39

IN: Form field: reported ARL (affinité relative de liaison), Incubation : 24 heures of `CC1(C)NC(=S)N(c2ccc(C#N)c(C(F)(F)F)c2)C1=O`
OUT: 24

IN: Form field: reported ARL (affinité relative de liaison), Incubation : 24 heures of `CN1C(=O)N(c2ccc([N+](=O)[O-])c(C(F)(F)F)c2)C(=O)C1(C)C`
OUT: 3

New cases:
IN: Form field: reported ARL (affinité relative de liaison), Incubation : 24 heures of `CC(C)N1C(=O)N(c2ccc([N+](=O)[O-])c(C(F)(F)F)c2)C(=O)C1(C)C`
OUT: 5

IN: Form field: reported ARL (affinité relative de liaison), Incubation : 24 heures of `CCN1C(=O)N(c2ccc([N+](=O)[O-])c(C(F)(F)F)c2)C(=O)C1(C)C`
OUT: 6

IN: Form field: reported ARL (affinité relative de liaison), Incubation : 24 heures of `CN1C(=S)N(c2ccc(C#N)c(C(F)(F)F)c2)C(=O)C1(C)C`
OUT: 92
